SYSTEM UNDER TEST: BACE1 (Homo sapiens)
Sequence (P56817 46-501, species assumed): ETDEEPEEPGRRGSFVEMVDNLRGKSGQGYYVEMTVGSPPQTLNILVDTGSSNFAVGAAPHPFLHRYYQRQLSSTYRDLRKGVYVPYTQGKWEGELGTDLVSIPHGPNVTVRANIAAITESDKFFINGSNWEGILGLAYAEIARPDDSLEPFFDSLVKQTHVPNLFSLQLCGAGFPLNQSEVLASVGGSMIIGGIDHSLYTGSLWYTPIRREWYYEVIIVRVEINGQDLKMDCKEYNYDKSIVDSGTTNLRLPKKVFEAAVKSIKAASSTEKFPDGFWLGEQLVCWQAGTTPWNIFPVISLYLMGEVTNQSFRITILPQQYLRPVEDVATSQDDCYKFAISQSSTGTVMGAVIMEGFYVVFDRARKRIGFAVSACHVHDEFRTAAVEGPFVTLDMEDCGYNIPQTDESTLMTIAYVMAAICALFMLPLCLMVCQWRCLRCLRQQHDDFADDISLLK
ASSAY NOTES: In Vitro BACE Cell-based Assay (HEK cell assay): Aβ40 in conditioned medium of cells stably expressing Amyloid Precursor Protein, sandwich ELISA
TEST CONTEXT: Table III; IC50's in uM ranges; read-out: HEK cell assay
Could you please report measured IC50 for the items listed next?

Request: Value lookup for IC50; key = C=C(C)COc1ccc2c(c1)[C@]1(COC(N)=N1)c1cc(-c3cncnc3)ccc1O2
Result: < 0.1 µM

Request: Value lookup for IC50; key = CC(C)(C)COc1ccc2c(c1)[C@]1(COC(N)=N1)c1cc(C(=O)N3CCCC3)ccc1O2 [218b]
Result: 0.1 to 1 µM

Request: Value lookup for IC50; key = CC(=O)COc1ccc2c(c1)[C@]1(COC(N)=N1)c1cc(C#CC3CC3)ccc1O2
Result: 0.1 to 1 µM

Request: Value lookup for IC50; key = COc1ncc(-c2ccc3c(c2)[C@]2(COC(N)=N2)c2cc(OCC(C)(C)C)ccc2O3)cn1
Result: 1 to 5 µM

Request: Value lookup for IC50; key = CC(=O)c1ccccc1-c1ccc2c(c1)[C@]1(COC(N)=N1)c1cc(OCC(C)(C)C)ccc1O2
Result: > 5 µM

Request: Value lookup for IC50; key = COCC#Cc1ccc2c(c1)[C@]1(COC(N)=N1)c1cc(-c3cncnc3)ccc1O2 [156a]
Result: < 0.1 µM

Request: Value lookup for IC50; key = COC(C)(C)C#Cc1ccc2c(c1)[C@]1(COC(N)=N1)c1cc(-c3cccnc3)ccc1O2
Result: < 0.1 µM

Request: Value lookup for IC50; key = Cc1noc(C)c1-c1ccc2c(c1)[C@]1(COC(N)=N1)c1cc(OCC(C)(C)C)ccc1O2
Result: > 5 µM
